target: T1, human complement C3b protein (human, UniProt P01024 23-667; P01024 749-1663); assay: SPR (Biacore), C3b captured by anti-C3d antibody, Fab as analyte
T1 construct: Purified plasma C3b (Complement Technology, Quidel); Depending on the assay it was captured by an anti-C3d antibody, coated, biotinylated or coupled to beads; also called human C3b; huC3b
T1 sequence (P01024 23-667 P314L, chain 1 of 2): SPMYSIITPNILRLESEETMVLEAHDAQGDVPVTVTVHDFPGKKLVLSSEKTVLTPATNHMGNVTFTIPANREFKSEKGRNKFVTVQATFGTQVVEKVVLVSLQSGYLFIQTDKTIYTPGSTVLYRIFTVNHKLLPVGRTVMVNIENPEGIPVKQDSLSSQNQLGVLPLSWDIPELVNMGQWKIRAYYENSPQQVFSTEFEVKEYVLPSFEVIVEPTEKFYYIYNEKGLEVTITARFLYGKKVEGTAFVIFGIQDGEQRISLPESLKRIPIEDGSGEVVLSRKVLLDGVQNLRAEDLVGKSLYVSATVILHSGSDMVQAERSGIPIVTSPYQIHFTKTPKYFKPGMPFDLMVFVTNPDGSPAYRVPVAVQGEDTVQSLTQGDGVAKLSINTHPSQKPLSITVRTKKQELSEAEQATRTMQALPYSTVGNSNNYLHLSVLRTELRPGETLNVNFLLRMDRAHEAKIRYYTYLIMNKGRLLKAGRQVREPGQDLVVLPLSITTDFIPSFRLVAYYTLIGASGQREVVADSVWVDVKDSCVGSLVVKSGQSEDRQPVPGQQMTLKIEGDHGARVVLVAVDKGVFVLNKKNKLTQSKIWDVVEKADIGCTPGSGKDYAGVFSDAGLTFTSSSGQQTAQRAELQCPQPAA
T1 sequence (P01024 749-1663, chain 2 of 2): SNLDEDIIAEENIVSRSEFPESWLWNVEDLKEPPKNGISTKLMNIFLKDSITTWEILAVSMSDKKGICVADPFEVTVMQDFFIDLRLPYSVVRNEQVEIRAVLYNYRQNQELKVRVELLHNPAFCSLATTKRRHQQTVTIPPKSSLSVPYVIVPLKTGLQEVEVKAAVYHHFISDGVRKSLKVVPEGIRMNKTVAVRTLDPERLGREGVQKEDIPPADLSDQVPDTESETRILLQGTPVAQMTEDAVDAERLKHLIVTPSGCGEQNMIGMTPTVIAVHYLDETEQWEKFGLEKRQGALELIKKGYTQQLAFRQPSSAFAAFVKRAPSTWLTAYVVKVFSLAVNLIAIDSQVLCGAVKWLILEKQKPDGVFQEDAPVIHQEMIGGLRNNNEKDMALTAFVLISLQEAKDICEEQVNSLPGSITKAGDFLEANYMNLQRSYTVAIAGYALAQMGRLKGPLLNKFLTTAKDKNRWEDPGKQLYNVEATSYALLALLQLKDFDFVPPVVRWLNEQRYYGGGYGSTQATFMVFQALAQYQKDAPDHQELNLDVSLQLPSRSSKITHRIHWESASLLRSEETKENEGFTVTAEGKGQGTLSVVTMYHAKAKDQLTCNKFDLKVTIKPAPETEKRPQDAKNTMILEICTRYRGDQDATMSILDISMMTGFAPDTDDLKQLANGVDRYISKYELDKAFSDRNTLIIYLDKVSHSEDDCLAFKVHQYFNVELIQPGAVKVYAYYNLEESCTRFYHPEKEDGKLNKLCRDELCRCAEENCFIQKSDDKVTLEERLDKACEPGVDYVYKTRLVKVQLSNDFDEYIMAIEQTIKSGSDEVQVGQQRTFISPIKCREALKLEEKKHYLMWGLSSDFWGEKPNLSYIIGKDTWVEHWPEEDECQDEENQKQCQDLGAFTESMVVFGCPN
RECORDED_ENDPOINT: Kd (pM)
Provide only the numeric value, understood in pM.

Some binders with recorded Kd:
MOR09141 Fab (Fab, V domains shown, also called Fab 9141) VH: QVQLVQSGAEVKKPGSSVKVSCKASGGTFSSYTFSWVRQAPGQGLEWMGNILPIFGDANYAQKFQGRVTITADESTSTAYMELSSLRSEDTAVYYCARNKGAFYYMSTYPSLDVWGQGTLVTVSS VL: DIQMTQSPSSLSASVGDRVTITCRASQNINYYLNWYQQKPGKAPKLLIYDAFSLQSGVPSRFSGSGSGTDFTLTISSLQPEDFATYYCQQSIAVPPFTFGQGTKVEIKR = 39
MOR09423 Fab (Fab, V domains shown, also called Fab 9423) VH: QVQLVQSGAEVKKPGASVKVSCKASGYTFTGYYINWVRQAPGQGLEWMGIISPNQGTTGYAQKFQGRVTMTRDTSISTAYMELSSLRSEDTAVYYCARGNYDHLDYWGQGTLVTVSS VL: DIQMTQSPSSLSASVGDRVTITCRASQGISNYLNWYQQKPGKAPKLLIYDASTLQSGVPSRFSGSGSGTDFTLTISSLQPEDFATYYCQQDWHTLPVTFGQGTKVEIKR = 75

Reported Kd for MOR09136 Fab (Fab, V domains shown, also called Fab 9136) VH: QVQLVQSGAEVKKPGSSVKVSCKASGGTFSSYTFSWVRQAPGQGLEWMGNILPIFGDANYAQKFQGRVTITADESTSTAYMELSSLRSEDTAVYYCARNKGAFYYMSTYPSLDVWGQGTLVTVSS VL: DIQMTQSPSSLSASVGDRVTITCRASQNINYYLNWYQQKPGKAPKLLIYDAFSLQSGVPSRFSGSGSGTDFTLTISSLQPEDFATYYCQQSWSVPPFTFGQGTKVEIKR was 75

Reported Kd for MOR09124 Fab (Fab, V domains shown, HCDR2-matured derivative of parental MOR08305) VH: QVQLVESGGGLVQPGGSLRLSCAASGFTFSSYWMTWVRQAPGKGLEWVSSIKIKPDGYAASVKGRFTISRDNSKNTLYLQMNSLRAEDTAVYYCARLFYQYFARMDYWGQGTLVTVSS VL: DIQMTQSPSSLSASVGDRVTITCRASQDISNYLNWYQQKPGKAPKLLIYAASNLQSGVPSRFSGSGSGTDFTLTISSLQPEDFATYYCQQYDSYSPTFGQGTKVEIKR was 7

Provenance of the data: patent US20100291106A1
